test: Cytotoxicity against Jurkat cells by Alamar blue assay; conditions: human, Jurkat cells
Attribute: CC50
measured endpoint: CC50

>>> print(df.to_string())
                                smiles_data  measured_endpoint  experimental_value
0  COc1ccc(-c2cc3nc(NCCN)c4ncc(C)n4c3s2)cc1               CC50            > 100 µM
1  CNc1nc2cc(-c3cccc(CCNC(N)=O)c3)sc2n2c(C)cnc12               CC50            > 100 µM
2        CNc1nc2cc(-c3ccccc3)sc2n2c(C)cnc12               CC50            > 100 µM

---

tested on: Jurkat; experiment: Inhibition of TNF-alpha-induced response in Jurkat cells; details: Homo sapiens
measured endpoint: EC50

>>> print(df.to_string())
                                smiles_data  measured_endpoint  experimental_value
0        COc1nc2cc(-c3ccccc3)sc2n2c(C)cnc12               EC50            > 100 µM
1  COc1ccc(-c2cc3nc(NCCN)c4ncc(C)n4c3s2)cc1               EC50             > 30 µM
2                CNc1nc2cc(C)sc2n2c(C)cnc12               EC50             > 30 µM
3  Cc1cnc2c(NCCN(C)C)nc3cc(-c4ccccc4)sc3n12               EC50             > 30 µM
4                   CNc1nc2ccsc2n2c(C)cnc12               EC50              > 3 µM
5      Cc1cnc2c(NCCN)nc3cc(-c4ccccn4)sc3n12               EC50            > 100 µM

---

target: Inhibitor of nuclear factor kappa-B kinase subunit alpha (Homo sapiens, UniProt O15111)
Sequence (O15111 whole entry): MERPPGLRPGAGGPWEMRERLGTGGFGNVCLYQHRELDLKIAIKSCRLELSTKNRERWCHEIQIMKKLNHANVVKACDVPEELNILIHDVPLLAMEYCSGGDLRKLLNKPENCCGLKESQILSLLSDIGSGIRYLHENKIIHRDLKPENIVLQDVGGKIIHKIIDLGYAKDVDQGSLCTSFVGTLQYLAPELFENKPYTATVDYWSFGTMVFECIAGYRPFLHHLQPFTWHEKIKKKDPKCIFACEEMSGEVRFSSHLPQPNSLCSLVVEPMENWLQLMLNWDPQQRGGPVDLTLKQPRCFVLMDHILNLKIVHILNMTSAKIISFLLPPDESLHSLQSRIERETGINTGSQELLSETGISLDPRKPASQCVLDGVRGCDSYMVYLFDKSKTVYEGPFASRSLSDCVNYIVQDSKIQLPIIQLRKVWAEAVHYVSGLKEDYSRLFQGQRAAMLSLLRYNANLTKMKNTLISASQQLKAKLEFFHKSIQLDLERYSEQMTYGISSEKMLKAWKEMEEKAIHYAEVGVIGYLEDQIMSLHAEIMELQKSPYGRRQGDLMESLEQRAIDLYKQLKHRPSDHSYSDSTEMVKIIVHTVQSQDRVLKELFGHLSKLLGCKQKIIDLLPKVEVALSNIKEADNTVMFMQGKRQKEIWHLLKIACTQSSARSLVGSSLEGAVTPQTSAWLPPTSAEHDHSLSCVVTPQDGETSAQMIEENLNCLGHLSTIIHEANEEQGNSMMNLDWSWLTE
measured endpoint: IC50

>>> df
                                smiles_data  experimental_value
0        COc1nc2cc(-c3ccccc3)sc2n2c(C)cnc12            > 100 µM
1  Cc1cnc2c(NCC(N)=O)nc3cc(-c4ccccc4)sc3n12             > 25 µM
2  CNc1nc2cc(-c3cccc(C(N)=O)c3)sc2n2c(C)cnc12             > 30 µM
